Test system: field corn (Zea mays L., var. Dekalb 535, CORN)
protocol-summary: Post-emerge greenhouse test, crop damage rating
Assay type: in vivo
recorded-conditions: rate 63 g ai/ha, 14 days after application, scale 0-100
Measured crop damage rating CORN by item
Please state the value as a number alone, without comment.

# count of solved cases: 2
| chemical-smiles | crop damage rating CORN |
| --- | --- |
| COc1cc(Oc2cc(-n3c(=O)n4n(c3=S)CCCC4)c(F)cc2Cl)nc(OC)n1 | 5 |
| COc1cc(OC)nc(Oc2cc(-n3c(=O)n4n(c3=S)CCCC4)c(F)cc2Cl)n1 | 5 |

Switching to the query record.
// `O=c1n(-c2cc(Oc3nccc(Cl)n3)c(Cl)cc2F)c(=S)n2n1CCCC2` : crop damage rating CORN value = 5

---

Tested on: sicklepod (Cassia obtusifolia, CASOB)
protocol-summary: Pre-emerge greenhouse herbicide test, phytotoxicity rating
Assay type: in vivo
recorded-conditions: 500 g ai/ha, 14 days after application, rating scale 0-100
Procedure: A standard greenhouse herbicide activity screening system was used to evaluate the herbicidal efficacy and crop safety of these test compounds. […] At 14 days after application of the test materials, phytotoxicity ratings were recorded. […]
Decide by phytotoxicity rating CASOB: equal to or exceeding 30 means Fulfilled, less means Not fulfilled.

| molecule | discrete-label |
| --- | --- |
| O=c1n(-c2cc(Oc3ccc([N+](=O)[O-])cc3)c(Cl)cc2F)c(=S)n2n1CCCC2 | Fulfilled |
| Cn1nc(-c2cc(Oc3ncccn3)c(Cl)cc2F)c(Cl)c1C(F)(F)F | Fulfilled |
| O=C1C2CCCCN2C(=O)N1c1cc(Oc2ncccc2C(F)(F)F)c(Cl)cc1F (centres unmarked) | Fulfilled |
| O=c1n(CCCF)nnn1-c1cc(Oc2ncccn2)c(Cl)cc1Cl | Fulfilled |
| COc1nc(OC)nc(Oc2cc(-c3nc(C)n(C(F)F)c3Cl)c(F)cc2Cl)n1 | Not fulfilled |

Textbook exercise: given the entry `Cn1nc(-c2cc(Oc3ncccc3C#N)c(Cl)cc2F)c(Cl)c1C(F)(F)F` , state whether its phytotoxicity rating CASOB is greater than or equal to 30.
Fulfilled

Textbook exercise: given the entry `N#Cc1cc([N+](=O)[O-])ccc1Oc1cc(-n2c(=O)n3n(c2=S)CCCC3)c(F)cc1Cl` , state whether its phytotoxicity rating CASOB is greater than or equal to 30.
Not fulfilled

Textbook exercise: given the entry `Cn1nc(-c2cc(Oc3ccc(C#N)cn3)c(Cl)cc2F)c(Cl)c1C(F)(F)F` , state whether its phytotoxicity rating CASOB is greater than or equal to 30.
Not fulfilled

Textbook exercise: given the entry `O=c1n(CCCF)nnn1-c1cc(Oc2ncccc2C(F)(F)F)c(Cl)cc1Cl` , state whether its phytotoxicity rating CASOB is greater than or equal to 30.
Fulfilled

Textbook exercise: given the entry `CCN1CC(=O)N(c2cc(Oc3ncccn3)c(Cl)cc2F)C1=O` , state whether its phytotoxicity rating CASOB is greater than or equal to 30.
Fulfilled

Textbook exercise: given the entry `O=c1n(CCCF)nnn1-c1cc(Oc2ncccc2C(F)(F)F)c(Cl)cc1F` , state whether its phytotoxicity rating CASOB is greater than or equal to 30.
Not fulfilled

Textbook exercise: given the entry `Cn1c(C(F)(F)F)nc(-c2cc(Oc3ncccn3)c(Cl)cc2F)c1Cl` , state whether its phytotoxicity rating CASOB is greater than or equal to 30.
Fulfilled

Textbook exercise: given the entry `Cn1c(C(F)(F)F)nc(-c2cc(Oc3ncccc3C(F)(F)F)c(Cl)cc2F)c1Cl` , state whether its phytotoxicity rating CASOB is greater than or equal to 30.
Not fulfilled

Textbook exercise: given the entry `O=c1n(-c2cc(Oc3ccccc3[N+](=O)[O-])c(Cl)cc2F)c(=S)n2n1CCCC2` , state whether its phytotoxicity rating CASOB is greater than or equal to 30.
Fulfilled

Textbook exercise: given the entry `O=C1C2=CCCCN2C(=O)N1c1cc(Oc2ncccc2C(F)(F)F)c(Cl)cc1F` , state whether its phytotoxicity rating CASOB is greater than or equal to 30.
Not fulfilled

Textbook exercise: given the entry `Cc1nn(-c2cc(Oc3ncccn3)c(Cl)cc2F)c(=O)n1C(F)F` , state whether its phytotoxicity rating CASOB is greater than or equal to 30.
Fulfilled

Textbook exercise: given the entry `CCN1CC(=O)N(c2cc(Oc3ncccc3C(F)(F)F)c(Cl)cc2F)C1=O` , state whether its phytotoxicity rating CASOB is greater than or equal to 30.
Fulfilled

Textbook exercise: given the entry `O=c1n(CCCF)nnn1-c1cc(Oc2ncccn2)c(Cl)cc1F` , state whether its phytotoxicity rating CASOB is greater than or equal to 30.
Fulfilled

Textbook exercise: given the entry `Cn1nc(-c2cc(Oc3cccc(F)n3)c(Cl)cc2F)c(Cl)c1C(F)(F)F` , state whether its phytotoxicity rating CASOB is greater than or equal to 30.
Fulfilled

Textbook exercise: given the entry `Nc1ccc(Oc2cc(-n3c(=O)n4n(c3=S)CCCC4)c(F)cc2Cl)c(C(F)(F)F)c1` , state whether its phytotoxicity rating CASOB is greater than or equal to 30.
Not fulfilled

Textbook exercise: given the entry `Nc1ccc(Oc2cc(-n3c(=O)n4n(c3=S)CCCC4)c(F)cc2Cl)cc1` , state whether its phytotoxicity rating CASOB is greater than or equal to 30.
Fulfilled
